Field: Papp. Provide a value for each of the molecules that follow.
Test: in vitro
Conditions: PAMPA, PAMPA-BBB Pe(10^-6 cm/sec), Table S3: compounds exhibiting low PAMPA-BBB permeability
Give your result in nm/s as a bare value.

// sample Oc1cc(O)cc(/C=C/c2ccc(O)c(O)c2)c1 [[…]] , its Papp was 10

// sample COc1ccc(O[C@@H]2O[C@H](CO)[C@H](O)[C@H](O)[C@H]2O)cc1 [4-METHOXYPHENYL .BETA.-D-GLUCOSIDE] , its Papp was 13

###

Settings: Table S3: compounds exhibiting low PAMPA-BBB permeability
Recorded Metric: PAMPA-BBB Pe(10^-6 cm/sec)

// sample N[C@H](C(=O)O)c1ccc(O)c(C(=O)O)c1 [NCGC00024539-02] , its PAMPA-BBB Pe(10^-6 cm/sec) was <1 10^-6 cm/sec

// sample COc1cc(C/C=C\c2ccccc2)c(OC)cc1O [NCGC00160148-01] , its PAMPA-BBB Pe(10^-6 cm/sec) was 1.3 10^-6 cm/sec

// sample C=CC(O)C1OC1C=CC1OC1C(C)O (stereo not shown) [NCGC00263647-01] , its PAMPA-BBB Pe(10^-6 cm/sec) was <1 10^-6 cm/sec

// sample COc1ccc(C(=O)CC(=O)O)c2c1C=CC(C)(C)O2 [NCGC00074767-03] , its PAMPA-BBB Pe(10^-6 cm/sec) was <1 10^-6 cm/sec

// sample COc1cc2oc(=O)ccc2cc1O [NCGC00163577-02] , its PAMPA-BBB Pe(10^-6 cm/sec) was 2.2 10^-6 cm/sec

// sample C[C@@H]1OC(O[C@H]2[C@H](Oc3cc(O)c4c(=O)c(O)c(-c5ccc(O)cc5)oc4c3)O[C@H](CO)[C@@H](O)[C@@H]2O)[C@H](O)[C@H](O)[C@H]1O (stereo partly shown) [NCGC00163581-01] , its PAMPA-BBB Pe(10^-6 cm/sec) was <1 10^-6 cm/sec

// sample COC(=O)C1=CC[C@@]23CC[C@@H]([C@@](C)(/C=C/C=C(\C)C(=O)O)OC2=O)[C@@]3(OC(C)=O)CC1 [NCGC00344122-04] , its PAMPA-BBB Pe(10^-6 cm/sec) was <1 10^-6 cm/sec

// sample c1ccc2c3c([nH]c2c1)[C@H]1[C@@H]2CC[C@@H]([C@@H]4CCCN[C@@H]42)N1CC3 [NCGC00262532-02] , its PAMPA-BBB Pe(10^-6 cm/sec) was <1 10^-6 cm/sec

// sample COc1cc(/C=C2/C(=O)Nc3ccccc32)cc(OC)c1O [NCGC00343740-01] , its PAMPA-BBB Pe(10^-6 cm/sec) was 4.8 10^-6 cm/sec

// sample O=C(OC[C@H]1O[C@H](OC(=O)c2cc(O)c(O)c(OC(=O)c3cc(O)c(O)c(O)c3)c2)[C@H](OC(=O)c2cc(O)c(O)c(OC(=O)c3cc(O)c(O)c(O)c3)c2)[C@@H](OC(=O)c2cc(O)c(O)c(OC(=O)c3cc(O)c(O)c(O)c3)c2)[C@@H]1OC(=O)c1cc(O)c(O)c(OC(=O)c2cc(O)c(O)c(O)c2)c1)c1cc(O)c(O)c(OC(=O)c2cc(O)c(O)c(O)c2)c1 [NCGC00263877-02] , its PAMPA-BBB Pe(10^-6 cm/sec) was <1 10^-6 cm/sec

// sample O=C(CO)c1c[nH]c2ccccc12 [NCGC00182562-01] , its PAMPA-BBB Pe(10^-6 cm/sec) was 6.7 10^-6 cm/sec

// sample CC(=O)NCCc1c[nH]c2ccccc12 [NCGC00260786-01] , its PAMPA-BBB Pe(10^-6 cm/sec) was 5.7 10^-6 cm/sec

// sample O=C1CC[C@]23/C=C/C(=O)NCCCCNCCCNC(=O)/C=C/c4ccc(c2c4)O[C@@H]3C1 [NCGC00263997-01] , its PAMPA-BBB Pe(10^-6 cm/sec) was <1 10^-6 cm/sec

// sample Cc1c(O)c2c(c(C(=O)/C=C/c3ccccc3)c1O)OC(C)(C)C=C2 [NCGC00187465-01] , its PAMPA-BBB Pe(10^-6 cm/sec) was <1 10^-6 cm/sec

// sample Cc1cc(O)c(C)c(O)c1C(=O)O [NCGC00095485-03] , its PAMPA-BBB Pe(10^-6 cm/sec) was <1 10^-6 cm/sec

// sample O=C/C=C/c1ccc(O)cc1 [NCGC00095729-01] , its PAMPA-BBB Pe(10^-6 cm/sec) was 4.5 10^-6 cm/sec

###

Experiment: in vitro
Details: PAMPA, PAMPA-BBB Pe(10^-6 cm/sec), Table S3: compounds exhibiting low PAMPA-BBB permeability
Recorded Metric: Papp

// sample O=C(O)/C=C/C=C/c1ccc2c(c1)OCO2 [PIPERIC ACID] , its Papp was < 1 ×10⁻⁶ cm/s

// sample CNc1ncnc2c1ncn2C1OC(CO)C(O)C1O (stereo not drawn) [N-METHYLADENOSINE] , its Papp was < 1 ×10⁻⁶ cm/s

// sample Nc1ncnc2c1ccn2[C@@H]1O[C@H](CO)[C@@H](O)[C@H]1O [TUBERCIDIN] , its Papp was 2.1 ×10⁻⁶ cm/s

// sample COC(=O)C[C@](O)(CCC(C)(C)O)C(=O)O[C@@H]1C(OC)=C[C@]23CCCN2CCc2cc4c(cc2[C@H]13)OCO4 [HARRINGTONINE] , its Papp was < 1 ×10⁻⁶ cm/s

// sample `O=C/C=C/c1ccccc1` , its Papp was < 1 ×10⁻⁶ cm/s

// sample O=C(O[C@@H]1Cc2c(O)cc(O)cc2O[C@@H]1c1ccc(O)c(O)c1)c1cc(O)c(O)c(O)c1 [EPICATECHIN GALLATE] , its Papp was < 1 ×10⁻⁶ cm/s

// sample O=c1cc(-c2ccc(O)cc2)oc2cc(O[C@H]3OC(CO)C(O)C(O)C3O)cc(O)c12 (stereo partly drawn) [COSMOSIOSIDE] , its Papp was 1.6 ×10⁻⁶ cm/s

// sample C[C@]12CC[C@@H]3c4ccc(O)cc4CC[C@H]3[C@@H]1C[C@@H](O)[C@@H]2O [ESTRIOL] , its Papp was < 1 ×10⁻⁶ cm/s

// sample c1cncc([C@@H]2CCCCN2)c1 [ANABASINE] , its Papp was 3.4 ×10⁻⁶ cm/s

###

Test: in vitro
Details: PAMPA, PAMPA-BBB Pe(10^-6 cm/sec), Table S3: compounds exhibiting low PAMPA-BBB permeability
Counter-ions that a name gives are not always drawn. *1 amine or outer side, *2 acyl side, *3 side chain or, on linkers, in order; H or OH if unused. Where a SMILES comes first, the peptide text is derived from it. Bridges are numbered along the chain shown (N, C = ends). [ ]: non-standard residue; d: D form. The star is where a group is joined. X1 = NC1=N[C@@H]([C@H](N[*:1])C(=O)[*:2])C[C@H](O)N1; ΔAla(Z-3-ureido) = NC(=O)N/C=C(\N)C(=O)O; β3hOrn = NCCC[C@H](N)CC(=O)*; Dap = NC[C@H](N)C(=O)O
Field: Papp. Provide a value for each of the compounds that follow.

// sample `COc1cc(C(=O)O)ccc1O` , its Papp was < 1 ×10⁻⁶ cm/s

// sample COc1ccc2cc3[n+](cc2c1OC)CCc1cc2c(cc1-3)OCO2 [BERBERINE HYDROCHLORIDE] , its Papp was < 1 ×10⁻⁶ cm/s

// sample `OC[C@H]1O[C@@H](OC[C@H]2O[C@@H](OC/C=C/c3ccccc3)[C@H](O)[C@@H](O)[C@@H]2O)[C@@H](O)[C@@H]1O` , its Papp was < 1 ×10⁻⁶ cm/s

// sample NCCC[C@H](N)CC(=O)N[C@H]1CNC(=O)[C@H]([C@H]2C[C@H](O)NC(N)=N2)NC(=O)/C(=C/NC(N)=O)NC(=O)[C@H](CO)NC(=O)[C@H](CO)NC1=O [VIOMYCIN SULFATE] (β3hOrn-[Dap]SS[ΔAla(Z-3-ureido)][X1]; lactam 1-C) , its Papp was < 1 ×10⁻⁶ cm/s

// sample `C[C@@H]1CC[C@@]2(OC1)O[C@H]1C[C@H]3[C@@H]4CC[C@H]5C[C@@H](O)CC[C@]5(C)[C@H]4CC(=O)[C@]3(C)[C@H]1[C@@H]2C` , its Papp was < 1 ×10⁻⁶ cm/s

// sample O=c1c(O)c(-c2ccc(O[C@@H]3O[C@H](CO)[C@@H](O)[C@H](O)[C@H]3O)c(O)c2)oc2cc(O)cc(O)c12 [SPIRAEOSIDE] , its Papp was < 1 ×10⁻⁶ cm/s

###

Assay: in vitro
Settings: PAMPA, PAMPA-BBB Pe(10^-6 cm/sec), Table S3: compounds exhibiting low PAMPA-BBB permeability
Structures can show the parent of a compound that is named as a salt.
Recorded Metric: Papp

// sample O=C1C=CC(=O)c2c(O)cccc21 [JUGLONE] , its Papp was 4.1 ×10⁻⁶ cm/s

// sample C[N+]1([O-])CCC[C@@H]1c1cccnc1 (stereo partly shown) [NICOTINE N'-OXIDE] , its Papp was 2.8 ×10⁻⁶ cm/s

// sample NCCc1c[nH]c2ccccc12 [TRYPTAMINE HYDROCHLORIDE] , its Papp was < 1 ×10⁻⁶ cm/s

// sample O=[N+]([O-])c1ncc[nH]1 [AZOMYCIN] , its Papp was < 1 ×10⁻⁶ cm/s

// sample NC1C=CC=C(C(=O)O)C1 (stereo not shown) , its Papp was < 1 ×10⁻⁶ cm/s

// sample COc1cc2c(c(OC)c1OC)-c1ccc(OC)c(=O)cc1[C@@H](NC=O)CC2 [N-FORMYL-N-DEACETYLCOLCHICINE] , its Papp was 6.6 ×10⁻⁶ cm/s

// sample C[C@]1(OC(=O)/C=C/c2ccccc2)C[C@@H](O)[C@]2(O)C=CO[C@@H](O[C@@H]3O[C@H](CO)[C@@H](O)[C@H](O)[C@H]3O)[C@@H]21 [HARPAGOSIDE] , its Papp was < 1 ×10⁻⁶ cm/s

// sample Cc1cc(O)cc(O)c1C(=O)O [[…]] , its Papp was < 1 ×10⁻⁶ cm/s

// sample CCCCCCCCCCCCCCCCCCCC(=O)O [[…]] , its Papp was < 1 ×10⁻⁶ cm/s

// sample `CN(CCCC(=O)c1cccnc1)N=O` , its Papp was < 1 ×10⁻⁶ cm/s
